experiment: Clearance in Wistar Han rat at 2 mg/kg, iv or 5 mg/kg, po; format: ADME, organism-based; details: in vivo
ASSAY_METRIC: clearance (mL/min/kg)
A number alone suffices; assume mL/min/kg.

Asked: State the recorded clearance for this entry: `CCC(=O)CCCCC[C@H](NC(=O)[C@H]1CC12CCN(CC)CC2)c1ncc(-c2cc3ccccc3nc2OC)[nH]1`
Given back: 7.2

---

test: Clearance in Wistar Han rat at 2 mg/kg, iv or 10 mg/kg, po; format: ADME, organism-based; details: in vivo
ASSAY_METRIC: clearance (mL/min/kg)
A number alone suffices; assume mL/min/kg.

Take a look at these entries with their results.
Asked: State the recorded clearance for this entry: `CCC(=O)CCCCC[C@H](NC(=O)[C@H]1CC12CCN(CC)CC2)c1ncc(-c2cc3ccccc3nc2OC)o1`
Given back: 15

Asked: State the recorded clearance for this entry: `CCC(=O)CCCCC[C@H](NC(=O)[C@H]1CC12CCN(C)CC2)c1ncc(-c2cc3ccccc3nc2OC)o1`
Given back: 11

Others:
Asked: State the recorded clearance for this entry: `CCC(=O)CCCCC[C@H](NC(=O)[C@H]1CC12CCN(C)CC2)c1ncc(-c2cc3ccccc3nc2OC)[nH]1`
Given back: 22

---

experiment: Half life in Beagle dog at 1 mg/kg, iv or 2 mg/kg, po; type: ADME, organism-based, Canis lupus familiaris; conditions: in vivo
ASSAY_METRIC: half-life (h)
A number alone suffices; assume h.

Asked: State the recorded half-life for this entry: `CCC(=O)CCCCC[C@H](NC(=O)[C@H]1CC12CCN(C)CC2)c1ncc(-c2cc3ccccc3nc2OC)[nH]1`
Given back: 7.2

---

assay: AUC in Beagle dog at 2 mg/kg, po; type: ADME, organism-based, Canis lupus familiaris; conditions: in vivo
ASSAY_METRIC: AUC
Please make sure the unit comes right after the number.

Asked: State the recorded AUC for this entry: `CCC(=O)CCCCC[C@H](NC(=O)[C@H]1CC12CCN(C)CC2)c1ncc(-c2cc3ccccc3nc2OC)[nH]1`
Given back: 1.8 µM·h

---

tested on: Human immunodeficiency virus; test: microbe, parasite or virus in culture; type: functional, organism-based; conditions: Human immunodeficiency virus 1, 2C4
Description: Reactivation of HIV latency infected in human 2C4 cells in presence of 0.1 % NHS by luciferase reporter gene assay
Entries annotated with measured EC50
Please make sure the unit comes right after the number.

Take a look at these entries with their results.
Asked: State the recorded EC50 for this entry: CCC(=O)CCCCC[C@H](NC(=O)[C@H]1CC12CCC(N(C)C)CC2)c1ncc(-c2cc3ccccc3nc2OC)[nH]1 (some centres undefined)
Given back: 36 nM

Asked: State the recorded EC50 for this entry: `CCC(=O)CCCCC[C@H](NC(=O)C1CN(C)C1)c1ncc(-c2cc3ccccc3nc2OC)[nH]1`
Given back: 110 nM

Others:
Asked: State the recorded EC50 for this entry: `CCC(=O)CCCCC[C@H](NC(=O)[C@H]1CC12CCN(C(C)C)CC2)c1ncc(-c2cc3ccccc3nc2OC)[nH]1`
Given back: 32 nM

Asked: State the recorded EC50 for this entry: `CCC(=O)CCCCC[C@H](NC(=O)[C@H]1CC12CCN(CC1CC1)CC2)c1ncc(-c2cc3ccccc3nc2OC)[nH]1`
Given back: 15 nM

---

test: Oral bioavailability in Beagle dog at 2 mg/kg; assay type: ADME, organism-based, Canis lupus familiaris; settings: in vivo
ASSAY_METRIC: bioavailability (%)
A number alone suffices; assume %.

Asked: State the recorded bioavailability for this entry: `CCC(=O)CCCCC[C@H](NC(=O)[C@H]1CC12CCN(C)CC2)c1ncc(-c2cc3ccccc3nc2OC)[nH]1`
Given back: 22.4

---

assay: Oral bioavailability in Wistar Han rat at 5 mg/kg; type: ADME, organism-based; conditions: in vivo
ASSAY_METRIC: bioavailability (%)
A number alone suffices; assume %.

Asked: State the recorded bioavailability for this entry: `CCC(=O)CCCCC[C@H](NC(=O)[C@H]1CC12CCN(CC)CC2)c1ncc(-c2cc3ccccc3nc2OC)[nH]1`
Given back: 5.8

---

assay: Cmax in Wistar Han rat at 5 mg/kg, po; format: ADME, organism-based; parameters: dose 5 mg/kg, route oral; settings: in vivo
ASSAY_METRIC: Cmax (nM)
A number alone suffices; assume nM.

Asked: State the recorded Cmax for this entry: `CCC(=O)CCCCC[C@H](NC(=O)[C@H]1CC12CCN(CC)CC2)c1ncc(-c2cc3ccccc3nc2OC)[nH]1`
Given back: 260

---

test system: Human immunodeficiency virus; test: microbe, parasite or virus in culture; type: functional, organism-based; conditions: Human immunodeficiency virus 1, 2C4
ASSAY_METRIC: pEC50
Remember, pEC50 is on a log scale: it is -log10 of the molar concentration.

Asked: What value of pEC50 on Human immunodeficiency virus does `CCC(=O)CCCCC[C@H](NC(=O)[C@H]1CC12CCN(CC)CC2)c1ncc(-c2cc3ccccc3nc2OC)o1` have?
Given back: 6.95

Asked: What value of pEC50 on Human immunodeficiency virus does `CCC(=O)CCCCC[C@H](NC(=O)C1CC2(C1)CN(C)C2)c1ncc(-c2cc3ccccc3nc2OC)[nH]1` have?
Given back: 6.89

Asked: What value of pEC50 on Human immunodeficiency virus does CCC(=O)CCCCC[C@H](NC(=O)[C@H]1CC12CCCN(C)C2)c1ncc(-c2cc3ccccc3nc2OC)[nH]1 (some centres undefined) have?
Given back: 7.09

Shift focus to the following entry.
Asked: What value of pEC50 on Human immunodeficiency virus does `CCC(=O)CCCCC[C@H](NC(=O)[C@H]1CC12CCN(C)CC2)c1nnc(-c2cc3ccccc3nc2OC)[nH]1` have?
Given back: 5.79

---

tested on: Human immunodeficiency virus; assay: microbe, parasite or virus in culture; type: functional, organism-based; conditions: Human immunodeficiency virus 1, 2C4
Entries annotated with measured log10 of EC50
Scale type: logarithmic (base 10). Underlying EC50 unit: nM.

Asked: State the recorded log10 of EC50 for this entry: `CCC(=O)CCCCC[C@H](NC(=O)[C@H]1CC12CCN(Cc1cccnc1)CC2)c1ncc(-c2cc3ccccc3nc2OC)[nH]1`
Given back: 1.79

Asked: State the recorded log10 of EC50 for this entry: `CCC(=O)CCCCC[C@H](NC(=O)[C@H]1CC12CCN(Cc1ccccc1)CC2)c1ncc(-c2cc3ccccc3nc2OC)[nH]1`
Given back: 1.87

Asked: State the recorded log10 of EC50 for this entry: `CCC(=O)CCCCC[C@H](NC(=O)[C@H]1CC12CCN(C)CC2)c1ncc(-c2cc3ccccc3nc2OC)o1`
Given back: 2.29

Others:
Asked: State the recorded log10 of EC50 for this entry: `CCC(=O)CCCCC[C@H](NC(=O)[C@H]1CC12CCN(C(C)=O)CC2)c1ncc(-c2cc3ccccc3nc2OC)[nH]1`
Given back: 3.19

Asked: State the recorded log10 of EC50 for this entry: `CCC(=O)CCCCC[C@H](NC(=O)[C@H]1CC12CCN(C)CC2)c1nnc(-c2cc3ccccc3nc2OC)o1`
Given back: 2.84

Asked: State the recorded log10 of EC50 for this entry: `CCC(=O)CCCCC[C@H](NC(=O)[C@H]1CC12CCN(C)CC2)c1ncc(-c2cc3ccccc3nc2OC)[nH]1`
Given back: 1.41

Asked: State the recorded log10 of EC50 for this entry: `CCC(=O)CCCCC[C@H](NC(=O)C1=NOC2(CCN(C)CC2)C1)c1ncc(-c2cc3ccccc3nc2OC)[nH]1`
Given back: 2.10

Asked: State the recorded log10 of EC50 for this entry: `CCC(=O)CCCCC[C@H](NC(=O)C1CCC2(CC1)CN(C)C2)c1ncc(-c2cc3ccccc3nc2OC)[nH]1`
Given back: 1.93

Asked: State the recorded log10 of EC50 for this entry: `CCC(=O)CCCCC[C@H](NC(=O)[C@H]1C[C@]12CCN(C)C2)c1ncc(-c2cc3ccccc3nc2OC)[nH]1`
Given back: 1.86

Asked: State the recorded log10 of EC50 for this entry: `CCC(=O)CCCCC[C@H](NC(=O)[C@@H]1CC12CN(C)C2)c1ncc(-c2cc3ccccc3nc2OC)[nH]1`
Given back: 1.87

Asked: State the recorded log10 of EC50 for this entry: `CCC(=O)CCCCC[C@H](NC(=O)[C@H]1CC12CCN(CC)CC2)c1nnc(-c2cc3ccccc3nc2OC)[nH]1`
Given back: 3.09

Asked: State the recorded log10 of EC50 for this entry: `CCC(=O)CCCCC[C@H](NC(=O)CC1CC2(C1)CN(C)C2)c1ncc(-c2cc3ccccc3nc2OC)[nH]1`
Given back: 2.11

Asked: State the recorded log10 of EC50 for this entry: `CCC(=O)CCCCC[C@H](NC(=O)[C@@H]1C[C@@]12CCN(C)C2)c1ncc(-c2cc3ccccc3nc2OC)[nH]1`
Given back: 2.49

Asked: State the recorded log10 of EC50 for this entry: `CCC(=O)CCCCC[C@H](NC(=O)[C@@H]1CCC12CCN(CC)CC2)c1ncc(-c2cc3ccccc3nc2OC)[nH]1`
Given back: 2.21

Asked: State the recorded log10 of EC50 for this entry: `CCC(=O)CCCCC[C@H](NC(=O)[C@@H]1CC12CCOCC2)c1ncc(-c2cc3ccccc3nc2OC)[nH]1`
Given back: 2.81

Asked: State the recorded log10 of EC50 for this entry: `CCC(=O)CCCCC[C@H](NC(=O)[C@H]1CC12CCN(CCC(F)(F)F)CC2)c1ncc(-c2cc3ccccc3nc2OC)[nH]1`
Given back: 1.89

Asked: State the recorded log10 of EC50 for this entry: `CCC(=O)CCCCC[C@H](NC(=O)[C@H]1CC12CCN(CC(F)(F)F)CC2)c1ncc(-c2cc3ccccc3nc2OC)[nH]1`
Given back: 2.05

Asked: State the recorded log10 of EC50 for this entry: `CCC(=O)CCCCC[C@H](NC(=O)[C@H]1CC12CN(C)C2)c1ncc(-c2cc3ccccc3nc2OC)[nH]1`
Given back: 2.19

Asked: State the recorded log10 of EC50 for this entry: `CCCN1CCC2(CC1)C[C@@H]2C(=O)N[C@@H](CCCCCC(=O)CC)c1ncc(-c2cc3ccccc3nc2OC)[nH]1`
Given back: 2.19

Asked: State the recorded log10 of EC50 for this entry: CCC(=O)CCCCC[C@H](NC(=O)[C@@H]1CC12CCC(N(C)C)CC2)c1ncc(-c2cc3ccccc3nc2OC)[nH]1 (stereo partly drawn)
Given back: 2.64

Asked: State the recorded log10 of EC50 for this entry: `CCC(=O)CCCCC[C@H](NC(=O)[C@H]1CCC12CCN(CC)CC2)c1ncc(-c2cc3ccccc3nc2OC)[nH]1`
Given back: 1.63

Asked: State the recorded log10 of EC50 for this entry: `CCC(=O)CCCCC[C@H](NC(=O)[C@H]1CC12CCN(Cc1ccc(OC)cc1)CC2)c1ncc(-c2cc3ccccc3nc2OC)[nH]1`
Given back: 2.05

Asked: State the recorded log10 of EC50 for this entry: `CCC(=O)CCCCC[C@H](NC(=O)[C@H]1CC12CCOCC2)c1ncc(-c2cc3ccccc3nc2OC)[nH]1`
Given back: 2.37

Asked: State the recorded log10 of EC50 for this entry: `CCC(=O)CCCCC[C@H](NC(=O)[C@@H]1CC12CCN(C)CC2)c1ncc(-c2cc3ccccc3nc2OC)[nH]1`
Given back: 2.53
